method.summary: Apparent permeability of the compound across basal to apical side in human Caco-2 cells expressing Pgp/BCRP at 10 uM incubated for 120 mins by LC-MS/MS analysis
Format: ADME, cell-based
condition.set: caco-2, 2 h
Here, each record is paired with measured Papp data.

C[C@]1(C(=O)[C@H](Cc2ccccc2)NC(=O)[C@@H]2Cc3ccc(cc3)OCCCCCCCC(=O)N3CCC[C@H]3C(=O)N2)CO1 = 3.33 10^-6 cm/s
CC(C)C[C@H](NC(=O)[C@@H]1COCCCCCC(=O)N2C[C@H](F)C[C@H]2C(=O)N1)C(=O)[C@@]1(C)CO1 = 17.3 10^-6 cm/s
C[C@]1(C(=O)[C@H](CC2=CCCC2)NC(=O)[C@@H]2COCCCCCC(=O)N3C[C@H](F)C[C@H]3C(=O)N2)CO1 = 9.06 10^-6 cm/s

Input CC(C)C[C@H](NC(=O)[C@H](CCc1ccccc1)NC(=O)CN1CCOCC1)C(=O)N[C@@H](Cc1ccccc1)C(=O)N[C@@H](CC(C)C)C(=O)[C@@]1(C)CO1 [CARFILZOMIB] . Output Papp: 5.16 10^-6 cm/s

response.value for CC(C)C[C@H](NC(=O)[C@@H]1COCCCCCC(=O)NCC(=O)N2CCC[C@H]2C(=O)N1)C(=O)[C@@]1(C)CO1 (field: Papp) = 7.25 10^-6 cm/s

get_value(item= CC(C)C[C@H](NC(=O)[C@@H]1COCCCCCCC(=O)NCC(=O)N2CCC[C@H]2C(=O)N1)C(=O)[C@@]1(C)CO1 , readout=Papp) returns 8.64 10^-6 cm/s

Reported Papp for CC(C)C[C@H](NC(=O)[C@@H]1COCCCCCC(=O)N2CC[C@H]2C(=O)N1)C(=O)[C@@]1(C)CO1 was 14.8 10^-6 cm/s

response.value for CC(C)C[C@H](NC(=O)[C@@H]1COCCCCCC(=O)N2CC(F)(F)C[C@H]2C(=O)N1)C(=O)[C@@]1(C)CO1 (field: Papp) = 14.4 10^-6 cm/s

C[C@]1(C(=O)[C@H](Cc2ccccc2)NC(=O)[C@@H]2COCCCCCC(=O)N3C[C@H](F)C[C@H]3C(=O)N2)CO1 yielded Papp of 12.6 10^-6 cm/s

Noted for C[C@]1(C(=O)[C@H](CC2=CCCC2)NC(=O)[C@@H]2Cc3ccc(cc3)OCCCCCCCC(=O)N3CCC[C@H]3C(=O)N2)CO1 : its Papp reads 1.05 10^-6 cm/s

Each recorded value in this set is attributed to ChEMBL document CHEMBL5506017.
